- experiment: Half life in mouse liver microsomes
- Assay type: ADME, Microsome
As shown below, each of these compounds has a reported half-life value.
Value expressed in min; do not type the unit.

Reference set (3 entries):
> print(dat)
                                   compound  measured.property  unit.annotation  endpoint.value
1  C[C@@H]1CN(c2ccc(F)cc2C(F)(F)F)CCN1S(=O)(=O)c1ccc([C@](O)(C(N)=O)C(F)(F)F)cc1          half-life              min              30
2  C[C@@H]1CN(c2ccc(F)cc2C(F)(F)F)CCN1S(=O)(=O)c1cccc([C@@](O)(C(N)=O)C(F)(F)F)c1          half-life              min              30
3  C[C@@H]1CN(c2ccc(C(N)=O)cc2C(F)(F)F)CCN1S(=O)(=O)c1ccc([C@](C)(O)C(F)(F)F)s1          half-life              min              17

The record that follows has no half-life shown yet.
INPUT: Can you look up the measured half-life of C[C@@H]1CN(c2ccc(F)cc2C(F)(F)F)CCN1S(=O)(=O)c1cn(C)c(C(C)(O)C(F)(F)F)n1 (some centres undefined) for me?
OUTPUT: 30

---

- tested-on: Peroxisome proliferator-activated receptor delta (Homo sapiens)
- Sequence (Q03181 whole entry): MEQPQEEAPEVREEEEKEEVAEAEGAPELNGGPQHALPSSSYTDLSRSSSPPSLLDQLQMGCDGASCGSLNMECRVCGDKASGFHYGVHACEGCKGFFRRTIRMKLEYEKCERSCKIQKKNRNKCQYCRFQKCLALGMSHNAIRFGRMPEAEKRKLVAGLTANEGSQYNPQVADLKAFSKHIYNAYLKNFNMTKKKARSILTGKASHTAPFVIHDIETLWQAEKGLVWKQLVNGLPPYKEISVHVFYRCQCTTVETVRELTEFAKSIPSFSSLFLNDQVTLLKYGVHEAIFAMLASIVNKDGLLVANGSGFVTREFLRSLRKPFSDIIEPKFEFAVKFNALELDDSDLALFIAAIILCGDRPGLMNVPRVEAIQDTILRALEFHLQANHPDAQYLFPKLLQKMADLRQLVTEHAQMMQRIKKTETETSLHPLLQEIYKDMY
- experiment: Inhibition of PPARbeta (unknown origin)
pIC50: −log10 of the molar value.
measured-property: pIC50

INPUT: Can you look up the measured pIC50 of C[C@@H]1CN(c2ccc(F)cc2C(F)(F)F)CCN1S(=O)(=O)c1ccc([C@@](O)(C(N)=O)C(F)(F)F)s1 for me?
OUTPUT: < 4.00

---

- experiment: Half life in human liver microsomes
- Type: ADME, Microsome
measured-property: half-life (min)
Value expressed in min; do not type the unit.

Reference set (3 entries):
> print(dat)
                                   molecule  endpoint.value
1  C[C@@H]1CN(c2ccc(C(N)=O)cc2C(F)(F)F)CCN1S(=O)(=O)c1ccc([C@@](C)(O)C(F)(F)F)s1              17
2  C[C@@H]1CN(c2ccc(F)cc2C(F)(F)F)CCN1S(=O)(=O)c1nc(C(C)(O)C(F)(F)F)n(C)n1 (stereo partly drawn)              10
3  C[C@@H]1CN(c2ccc(F)cc2C(F)(F)F)CCN1S(=O)(=O)c1ncc([C@@](O)(C(N)=O)C(F)(F)F)s1              21

The record that follows has no half-life shown yet.
INPUT: Can you look up the measured half-life of C[C@@H]1CN(c2ccc(F)cc2C(F)(F)F)CCN1S(=O)(=O)c1ccc([C@](O)(C(N)=O)C(F)(F)F)cc1 for me?
OUTPUT: 27

---

- experiment: Half life in C57B6 mouse at 10 mg/kg, po
- Assay type: ADME, organism-based
- Design: dose 10 mg/kg, route oral
- condition: in vivo
measured-property: half-life (h)
Value expressed in h; do not type the unit.

> print(dat)
                            chemical.string  unit.annotation  endpoint.value
1  C[C@@H]1CN(c2ccc(F)cc2C(F)(F)F)CCN1S(=O)(=O)c1ccc([C@@](O)(C(N)=O)C(F)(F)F)s1                h             4.8

The record that follows has no half-life shown yet.
INPUT: Can you look up the measured half-life of C[C@@H]1CN(c2ccc(F)cc2C(F)(F)F)CCN1S(=O)(=O)c1cccc([C@@](O)(C(N)=O)C(F)(F)F)c1 for me?
OUTPUT: 2.8

---

- experiment: Half life in human liver microsomes
- Format: ADME, Microsome
measured-property: half-life

Reference set (3 entries):
> print(dat)
                                   compound  endpoint.value
1  C[C@@H]1CN(c2ccc(F)cc2C(F)(F)F)CCN1S(=O)(=O)c1ccc([C@@](O)(C(N)=O)C(F)(F)F)s1        > 30 min
2  C[C@@H]1CN(c2ccc(F)cc2C(F)(F)F)CCN1S(=O)(=O)c1ccc(C(C)(O)C(F)(F)F)s1 (some centres undefined)        > 30 min
3  C[C@@H]1CN(c2ccc(F)cc2C(F)(F)F)CCN1S(=O)(=O)c1cccc([C@](O)(C(N)=O)C(F)(F)F)c1         < 2 min

INPUT: Can you look up the measured half-life of C[C@@H]1CN(c2ccc(F)cc2C(F)(F)F)CCN1S(=O)(=O)c1ccc([C@@](C)(O)C(F)(F)F)s1 for me?
OUTPUT: > 30 min
